# Test system: P. vulgatus WT;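 further: active when median AUC fell below 0.1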
# test.summary: growth AUC normalised to DMSO control (median) (fraction of control); higher = less growth inhibition, active = hit call of the paper
# condition.parameters: 20 µM
Structures can show the parent of a compound that is named as a salt.
value.kind: growth AUC normalised to DMSO control
Hey, just send me the number, nothing else.

The molecule listed as O=c1c2ccccc2[se]n1-c1ccccc1 shows growth AUC normalised to DMSO control equal to 1.02

Record CC1C=CC=CCCC=CC=CC=CC=CC(OC2OC(C)C(O)C(N)C2O)CC2OC(O)(CC(O)C(O)CCC(O)CC(O)CC(O)CC(=O)OC(C)C(C)C1O)CC(O)C2C(=O)O (centres undefined) . Reported growth AUC normalised to DMSO control: 0.996

growth AUC normalised to DMSO control measured on C#C[C@]1(O)CC[C@H]2[C@@H]3CCC4=CC(=O)CCC4=C3C=C[C@@]21CC = 1.07

Item: COc1ccc(C(=O)N2CCCC2=O)cc1 | growth AUC normalised to DMSO control: 1.01

// field: growth AUC normalised to DMSO control; key: c1ccc2c(c1)OCC(C1=NCCN1)O2 (centres undefined) [Idazoxan hydrochloride] ; value = 0.98

growth AUC normalised to DMSO control for CNCC(O)c1ccc(O)cc1 (centres undefined) [Synephrine] is 0.984

Field growth AUC normalised to DMSO control (entry NCCCNCCSP(=O)(O)O ) reads 1.07

The reported growth AUC normalised to DMSO control of the molecule COc1cccc(C2(O)CCCCC2CN(C)C)c1 (centres undefined) [Tramadol hydrochloride] was 0.989

Looking up C[C@@H]1CN([C@H]2CC[C@](C#N)(c3ccc(F)cc3)CC2)CC[C@]1(C(=O)O)c1ccccc1 [Levocabastine hydrochloride] , I found its growth AUC normalised to DMSO control recorded as 1.05

* * *

# Tested on: Haemophilus parainfluenzae
# test.summary: growth AUC normalised to DMSO control (fraction of control); higher = less growth inhibition, active = hit call of the paper
# condition.parameters: 20 µM
Structures can show the parent of a compound that is named as a salt.
Field 'call' accepts active, inactive

QUERY: # lookup: test call for CN1C(=O)OC(C)(C)C1=O [Trimethadione]
RESULT: inactive

QUERY: // outcome(item) with item = C=C1C[C@@H]2[C@H](CC[C@]3(C)C(=O)CC[C@@H]23)[C@@]2(C)C=CC(=O)C=C12 [Exemestane]
RESULT: inactive

QUERY: Tell me the recorded outcome of this test for CC1(C)S[C@@H]2[C@H](NC(=O)[C@H](C(=O)O)c3ccsc3)C(=O)N2[C@H]1C(=O)O [Ticarcillin sodium] .
RESULT: active

QUERY: Could you check what this test reported for Cc1onc(-c2ccccc2Cl)c1C(=O)N[C@@H]1C(=O)N2[C@@H]1SC(C)(C)[C@@H]2C(=O)O [Cloxacillin sodium salt] ?
RESULT: inactive

QUERY: Assay result, entry CCCCOC(=O)c1ccc(N)cc1 [Butamben] — outcome?
RESULT: inactive

QUERY: What call does the record list for CN(C)CCC=C1c2ccccc2C=Cc2ccccc21 [Cyclobenzaprine hydrochloride] ?
RESULT: inactive

QUERY: Recorded test outcome, item C[N+](C)(C)CCCCCC[N+](C)(C)C [Hexamethonium dibromide dihydrate]
RESULT: inactive

QUERY: // return assay outcome for C[C@]12CC[C@H](O)C[C@@H]1CC[C@@H]1[C@@H]2CC[C@]2(C)C(=O)CC[C@@H]12 [Epiandrosterone]
RESULT: inactive

QUERY: Name the outcome recorded for O=c1cc(-c2ccc(O)c(O)c2)oc2cc(O)cc(O)c12 [Luteolin] in the assay.
RESULT: inactive

QUERY: Recorded test call requested for CN1CCN(CC(=O)N2c3ccccc3C(=O)Nc3cccnc32)CC1 [Pirenzepine dihydrochloride]
RESULT: inactive

QUERY: For this compound, state the assay outcome: N=C(N)N/N=C/c1c(Cl)cccc1Cl [Guanabenz acetate]
RESULT: inactive

QUERY: Write down the call the test reported for this compound. Item: C=CCc1ccccc1OCC(O)CNC(C)C (configuration not stated) [Alprenolol hydrochloride]
RESULT: inactive

QUERY: Outcome logged for CN(C)CCCO[C@@H]1[C@H]2OC(C)(C)O[C@H]2O[C@@H]1[C@H](O)CO [Amiprilose hydrochloride] in this assay:
RESULT: inactive

QUERY: Test call, this compound: CC1COc2c(N3CCN(C)CC3)c(F)cc3c(=O)c(C(=O)O)cn1c23 (configuration not stated) [Ofloxacin]
RESULT: active

QUERY: // outcome(item) with item = COCCOC(=O)C1=C(C)NC(C)=C(C(=O)OC(C)C)C1c1cccc([N+](=O)[O-])c1 (configuration not stated) [Nimodipine]
RESULT: inactive

QUERY: Any idea what this test logged for O=C1c2c(O)cccc2Cc2cccc(O)c21 [Anthralin] ?
RESULT: inactive

QUERY: What call does the record list for Cc1nc2n(c(=O)c1CCN1CCC(c3noc4cc(F)ccc34)CC1)CCCC2 [Risperidone] ?
RESULT: inactive
